Target: GST tagged IRAK4 (Homo sapiens (Human), UniProt Q9NWZ3)
Sequence (Q9NWZ3 whole entry): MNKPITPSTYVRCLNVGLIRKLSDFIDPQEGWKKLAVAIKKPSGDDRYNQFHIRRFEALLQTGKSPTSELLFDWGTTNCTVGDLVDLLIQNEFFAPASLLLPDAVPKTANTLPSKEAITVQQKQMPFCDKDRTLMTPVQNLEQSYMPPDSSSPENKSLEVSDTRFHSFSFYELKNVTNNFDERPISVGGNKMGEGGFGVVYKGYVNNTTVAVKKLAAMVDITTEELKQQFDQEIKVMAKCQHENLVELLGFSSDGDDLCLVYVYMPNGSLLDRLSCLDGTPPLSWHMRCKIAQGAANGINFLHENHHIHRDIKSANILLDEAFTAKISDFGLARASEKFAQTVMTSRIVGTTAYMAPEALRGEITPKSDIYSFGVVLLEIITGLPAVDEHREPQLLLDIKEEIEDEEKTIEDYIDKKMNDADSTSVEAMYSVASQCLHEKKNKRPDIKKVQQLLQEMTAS
Assay: IRAK4 Kinase Assay (IMAP fluorescence polarization)
Type: biochemical
Settings: 0.5 nM GST tagged IRAK4, 100 μM ATP, 30 minutes at 25° C.
Structures can show the parent of a compound that is named as a salt.
MEASURE: IC50 (nM)
Respond with the bare value in nM.

Q. Fill in the blank: the reported IC50 of Cn1cc(NC(=O)c2ccc3cnc(NC4CCCCNC4)nn23)c(C(F)(F)F)n1 (stereo not drawn) [Example 10, trifluoroacetate] is ____.
A. 4

Q. Fill in the blank: the reported IC50 of Cn1cc(NC(=O)c2ccc3cnc(N4CCNCC5(CC5)C4)nn23)c(C(F)F)n1 [Example 20, trifluoroacetate] is ____.
A. 2

Q. Fill in the blank: the reported IC50 of N[C@H]1CCCC[C@H]1Nc1ncc2ccc(C(=O)Nc3ccccc3Br)n2n1 [Example 32, trifluoroacetate] is ____.
A. 11

Q. Fill in the blank: the reported IC50 of Cn1cc(NC(=O)c2ccc3cnc(N4C[C@H](N)C[C@H](F)C4)nn23)c(C(F)F)n1 [Example 163, trifluoroacetate] is ____.
A. 0.7

Q. Fill in the blank: the reported IC50 of Cn1cc(NC(=O)c2ccc3cnc(N[C@H]4CC(F)(F)CC[C@H]4N)nn23)c(C(F)F)n1 (single isomer, unassigned) [Example 130] is ____.
A. 668

Q. Fill in the blank: the reported IC50 of O=C(Nc1ccccc1C(F)F)c1ccc2cnc(N3C[C@H]4CC[C@@H]3CN4)nn12 (single isomer, unassigned) [Example 62, trifluoroacetate] is ____.
A. 944

* * *

Structures can show the parent of a compound that is named as a salt.
MEASURE: pIC50
Please report pIC50 as the negative decimal logarithm of the molar concentration, giving only the number.

Q. # returns recorded pIC50 (system: GST tagged IRAK4 (Homo sapiens (Human), UniProt Q9NWZ3)) for Cn1cc(NC(=O)c2ccc3cnc(N[C@@H]4CCCNC4)nn23)c(C(F)(F)F)n1 [Example 5, trifluoroacetate]
A. 8.70

Q. # returns recorded pIC50 (system: GST tagged IRAK4 (Homo sapiens (Human), UniProt Q9NWZ3)) for N#Cc1cscc1NC(=O)c1ccc2cnc(N3CCC[C@@H](N)C3)nn12 [Example 144, trifluoroacetate]
A. 7.74

Q. # returns recorded pIC50 (system: GST tagged IRAK4 (Homo sapiens (Human), UniProt Q9NWZ3)) for Cn1cc(NC(=O)c2ccc3cnc(N4CCC[C@@H](N)C4)nn23)c(C(F)F)n1 [Example 18, trifluoroacetate]
A. 9.30

Q. # returns recorded pIC50 (system: GST tagged IRAK4 (Homo sapiens (Human), UniProt Q9NWZ3)) for N[C@@H]1[C@H](Nc2ncc3ccc(C(=O)Nc4ccsc4Br)n3n2)CCCC1(F)F [Example 94, trifluoroacetate]
A. 5.38

Q. # returns recorded pIC50 (system: GST tagged IRAK4 (Homo sapiens (Human), UniProt Q9NWZ3)) for O=C(Nc1cscc1Br)c1ccc2cnc(N3CCCNCC3)nn12 [Example 23, trifluoroacetate]
A. 5.77

Q. # returns recorded pIC50 (system: GST tagged IRAK4 (Homo sapiens (Human), UniProt Q9NWZ3)) for O=C(Nc1ccccc1Cl)c1ccc2cnc(N3C[C@H]4CC[C@@H]3CN4)nn12 (single isomer, unassigned) [Example 55, trifluoroacetate]
A. 6.25

Q. # returns recorded pIC50 (system: GST tagged IRAK4 (Homo sapiens (Human), UniProt Q9NWZ3)) for N#Cc1ccccc1NC(=O)c1ccc2cnc(N[C@@H]3CCCC[C@@H]3N)nn12 [Example 50, trifluoroacetate]
A. 7.96

* * *

Counter-ions that a name gives are not always drawn.
MEASURE: IC50 (µM)
Respond with the bare value in µM.

Q. # returns recorded IC50 (system: GST tagged IRAK4 (Homo sapiens (Human), UniProt Q9NWZ3)) for Cn1cc(NC(=O)c2ccc3cnc(N[C@@H]4CCCC(F)(F)[C@@H]4N)nn23)c(C(F)F)n1 [Example 92, trifluoroacetate]
A. 0.046

Q. # returns recorded IC50 (system: GST tagged IRAK4 (Homo sapiens (Human), UniProt Q9NWZ3)) for Cn1cc(NC(=O)c2ccc3cnc(N[C@@H]4CNC[C@@H](F)C4)nn23)c(C(F)(F)F)n1 [Example 161, trifluoroacetate]
A. 0.004

Q. # returns recorded IC50 (system: GST tagged IRAK4 (Homo sapiens (Human), UniProt Q9NWZ3)) for N#Cc1cscc1NC(=O)c1ccc2cnc(N[C@@H]3CCCC(F)(F)[C@@H]3N)nn12 [Example 153, trifluoroacetate]
A. 0.12

Q. # returns recorded IC50 (system: GST tagged IRAK4 (Homo sapiens (Human), UniProt Q9NWZ3)) for N#Cc1ccccc1NC(=O)c1ccc2cnc(N3CCNCC4(CC4)C3)nn12 [Example 76, trifluoroacetate]
A. 0.97

Q. # returns recorded IC50 (system: GST tagged IRAK4 (Homo sapiens (Human), UniProt Q9NWZ3)) for Cn1cc(NC(=O)c2ccc3cnc(N[C@@H]4CCCNC4)nn23)c(C(F)F)n1 [Example 16, trifluoroacetate]
A. 0.001

Q. # returns recorded IC50 (system: GST tagged IRAK4 (Homo sapiens (Human), UniProt Q9NWZ3)) for N#Cc1ccccc1NC(=O)c1ccc2cnc(N3CCNCC3)nn12 [Example 58, trifluoroacetate]
A. 1.91

Q. # returns recorded IC50 (system: GST tagged IRAK4 (Homo sapiens (Human), UniProt Q9NWZ3)) for Cn1cc(NC(=O)c2ccc3cnc(N4CCC[C@@H](N)C4)nn23)c(C(F)(F)F)n1 [Example 7, trifluoroacetate]
A. 0.0009

* * *

Hi there, I'd appreciate the recorded pIC50 for every entry that follows.
Structures can show the parent of a compound that is named as a salt.
Please report pIC50 as the negative decimal logarithm of the molar concentration, giving only the number.

Q. # returns recorded pIC50 (system: GST tagged IRAK4 (Homo sapiens (Human), UniProt Q9NWZ3)) for N#Cc1cscc1NC(=O)c1ccc2cnc(N[C@@H]3CCCC[C@@H]3O)nn12 [Example 142, trifluoroacetate]
A. 5.80

Q. # returns recorded pIC50 (system: GST tagged IRAK4 (Homo sapiens (Human), UniProt Q9NWZ3)) for O=C(Nc1ccsc1Br)c1ccc2cnc(N3CCCNCC3)nn12 [Example 37, trifluoroacetate]
A. 5.78

Q. # returns recorded pIC50 (system: GST tagged IRAK4 (Homo sapiens (Human), UniProt Q9NWZ3)) for N#Cc1cscc1NC(=O)c1ccc2cnc(N3CCCNCC3)nn12 [Example 12, trifluoroacetate]
A. 6.44

Q. # returns recorded pIC50 (system: GST tagged IRAK4 (Homo sapiens (Human), UniProt Q9NWZ3)) for O=C(Nc1ccccc1C(F)(F)F)c1ccc2cnc(N3C[C@@H]4CC[C@H]3CN4)nn12 (single isomer, unassigned) [Example 78, trifluoroacetate]
A. 5.84

* * *

Counter-ions that a name gives are not always drawn.
Hi there, I'd appreciate the recorded IC50 for every entry that follows.
Respond with the bare value in nM.

Q. # returns recorded IC50 (system: GST tagged IRAK4 (Homo sapiens (Human), UniProt Q9NWZ3)) for O=C(Nc1ccccc1C(F)F)c1ccc2cnc(N3CCCNCC3)nn12 [Example 57, trifluoroacetate]
A. 6560

Q. # returns recorded IC50 (system: GST tagged IRAK4 (Homo sapiens (Human), UniProt Q9NWZ3)) for O=C(Nc1cscc1C(F)F)c1ccc2cnc(N3CCCNCC3)nn12 [Example 41, trifluoroacetate]
A. 88

Q. # returns recorded IC50 (system: GST tagged IRAK4 (Homo sapiens (Human), UniProt Q9NWZ3)) for O=C(Nc1cscc1Cl)c1ccc2cnc(N3C[C@H]4CC[C@@H]3CN4)nn12 (single isomer, unassigned) [Example 108, trifluoroacetate]
A. 198

Q. # returns recorded IC50 (system: GST tagged IRAK4 (Homo sapiens (Human), UniProt Q9NWZ3)) for Cn1cc(NC(=O)c2ccc3cnc(N4CCC[C@H](N)C4)nn23)c(C#N)n1 [Example 123, trifluoroacetate]
A. 1

Q. # returns recorded IC50 (system: GST tagged IRAK4 (Homo sapiens (Human), UniProt Q9NWZ3)) for Cn1cc(NC(=O)c2ccc3cnc(N4C5CCC4CNC5)nn23)c(C#N)n1 [Example 111, trifluoroacetate]
A. 12

Q. # returns recorded IC50 (system: GST tagged IRAK4 (Homo sapiens (Human), UniProt Q9NWZ3)) for O=C(Nc1cscc1Cl)c1ccc2cnc(N3CCCNCC3)nn12 [Example 105, trifluoroacetate]
A. 4820

Q. # returns recorded IC50 (system: GST tagged IRAK4 (Homo sapiens (Human), UniProt Q9NWZ3)) for N#Cc1ccccc1NC(=O)c1ccc2cnc(N[C@@H]3CCCNC3)nn12 [Example 52, trifluoroacetate]
A. 26

Q. # returns recorded IC50 (system: GST tagged IRAK4 (Homo sapiens (Human), UniProt Q9NWZ3)) for Cn1cc(NC(=O)c2ccc3cnc(N[C@@H]4CCCC[C@@H]4N)nn23)c(C(F)F)n1 [Example 1]
A. 0.5

Q. # returns recorded IC50 (system: GST tagged IRAK4 (Homo sapiens (Human), UniProt Q9NWZ3)) for Cn1ncc(NC(=O)c2ccc3cnc(N[C@@H]4CCCC[C@@H]4N)nn23)c1C(F)(F)F [Example 70, trifluoroacetate]
A. 26

Q. # returns recorded IC50 (system: GST tagged IRAK4 (Homo sapiens (Human), UniProt Q9NWZ3)) for Cn1cc(NC(=O)c2ccc3cnc(N4C[C@@H](N)C[C@H](F)C4)nn23)c(C(F)(F)F)n1 [Example 150, trifluoroacetate]
A. 10

Q. # returns recorded IC50 (system: GST tagged IRAK4 (Homo sapiens (Human), UniProt Q9NWZ3)) for Cn1cc(NC(=O)c2ccc3cnc(N[C@@H]4CCCC[C@@H]4N)nn23)c(Br)n1 [Example 66, trifluoroacetate]
A. 1

Q. # returns recorded IC50 (system: GST tagged IRAK4 (Homo sapiens (Human), UniProt Q9NWZ3)) for Cn1cc(NC(=O)c2ccc3cnc(N4CC5CCC(C4)N5)nn23)c(C#N)n1 [Example 110, trifluoroacetate]
A. 117

Q. # returns recorded IC50 (system: GST tagged IRAK4 (Homo sapiens (Human), UniProt Q9NWZ3)) for Cn1cc(NC(=O)c2ccc3cnc(N4C[C@@H]5CC[C@H]4CN5)nn23)c(C#N)n1 (single isomer, unassigned) [Example 46, trifluoroacetate]
A. 72

Q. # returns recorded IC50 (system: GST tagged IRAK4 (Homo sapiens (Human), UniProt Q9NWZ3)) for Cn1cc(NC(=O)c2ccc3cnc(N[C@@H]4CC(F)(F)CC[C@@H]4N)nn23)c(C(F)(F)F)n1 (single isomer, unassigned) [Example 131, trifluoroacetate]
A. 4

These entries and their values trace back to patent US10329295B2.
